The measurements presented in this section are drawn from the antibiotic and cytotoxicity screens of Wong et al. (2023).

tested on: HSkMC; experiment: cytotoxicity call (relative viability < 0.9); conditions: 10 µM
The campaign covered roughly 39,000 compounds. About 1,500 (3.8%) were called active. The entries come from a sample that favours actives as a whole.
Possible outcomes: 1.0 for active, 0.0 for inactive

>  <compound>
CC(C)(Sc1cc(C(C)(C)C)c(O)c(C(C)(C)C)c1)Sc1cc(C(C)(C)C)c(OC(=O)CCC(=O)O)c(C(C)(C)C)c1

>  <assigned label>
1.0

$$$$
>  <compound>
Cc1noc(C)c1S(=O)(=O)Nc1ccc2c(c1)CC(=O)N([C@H](C)CO)C[C@H](C)[C@@H](CN(C)S(=O)(=O)c1cccs1)O2

>  <assigned label>
0.0

$$$$
>  <compound>
CN[C@H]1CC[C@@H](c2ccc(Cl)c(Cl)c2)c2ccccc21

>  <assigned label>
0.0

$$$$
>  <compound>
N[C@@H]1CC[C@@H](c2ccc(Cl)c(Cl)c2)c2ccccc21

>  <assigned label>
1.0

$$$$
>  <compound>
CC(C)(Sc1cc(C(C)(C)C)c(O)c(C(C)(C)C)c1)Sc1cc(C(C)(C)C)c(O)c(C(C)(C)C)c1

>  <assigned label>
0.0

$$$$
>  <compound>
CNC1CCC(c2ccc(Cl)c(Cl)c2)c2ccccc21.Cl (centres undefined)

>  <assigned label>
1.0

$$$$
>  <compound>
C[C@@H]1CCCCO[C@@H](CN(C)C(=O)C2CCCCC2)[C@H](C)CN([C@H](C)CO)C(=O)c2cc(NC(=O)Nc3ccc4c(c3)OCO4)ccc2O1

>  <assigned label>
0.0

$$$$
>  <compound>
C[C@@H]1CN([C@@H](C)CO)C(=O)c2cc(NS(=O)(=O)c3cccs3)ccc2O[C@@H](C)CCCCO[C@H]1CN(C)C(=O)Cc1ccccc1

>  <assigned label>
0.0

$$$$
>  <compound>
CS(=O)(=O)Nc1ccc2c(c1)[C@@H]1C[C@H](CC(=O)NCc3ccc(-c4ccccc4)cc3)O[C@@H](CO)[C@@H]1O2

>  <assigned label>
0.0

$$$$
>  <compound>
COCC#Cc1cnc2c(c1)C(=O)N([C@H](C)CO)C[C@H](C)[C@H](CN(C)C(=O)Nc1ccccc1OC)O2

>  <assigned label>
0.0

$$$$
>  <compound>
COc1ccccc1NC(=O)N(C)C[C@H]1OCc2ccccc2-c2c(n(C)c3ccccc23)C(=O)N([C@H](C)CO)C[C@H]1C

>  <assigned label>
0.0

$$$$
>  <compound>
CC[C@H](C)[C@H]1O[C@]2(CC[C@@H]1C)C[C@@H]1C[C@@H](C/C=C(\C)[C@@H](O[C@H]3C[C@H](OC)[C@@H](O[C@H]4C[C@H](OC)[C@@H](O)[C@H](C)O4)[C@H](C)O3)[C@@H](C)/C=C/C=C3\CO[C@@H]4[C@H](O)C(C)=C[C@@H](C(=O)O1)[C@]34O)O2

>  <assigned label>
1.0

$$$$
>  <compound>
O=C(C[C@H]1C[C@H]2c3cc(NS(=O)(=O)c4ccc(F)cc4)ccc3O[C@H]2[C@@H](CO)O1)NC1CCCCC1

>  <assigned label>
0.0

$$$$
>  <compound>
O=C(C[C@H]1CC[C@H]2[C@@H](COC[C@H](O)CN2C(=O)Nc2cccc(F)c2)O1)NCCCN1CCOCC1

>  <assigned label>
0.0

$$$$

---

test system: HSkMC; assay: cytotoxicity call (relative viability < 0.9); settings: 10 µM
Hit rate of the full screen: of about 39,000 compounds, about 1,500 (3.8%) were called active. The list comes from a sample in which actives are over-represented; it also holds close analogues and randomly drawn compounds.
Possible outcomes: active, inactive

>  <sample smiles>
COc1ccc2c3c([nH]c2c1)[C@@H](CO)N(C[C@]13CCN(CC1)C(=O)Nc1ccc(cc1)F)C(=O)c1ccc(cc1)F

>  <assigned label>
inactive

$$$$
>  <sample smiles>
C[C@@H]1CN([C@@H](C)CO)C(=O)c2cc(NC(=O)Nc3cccc4ccccc34)ccc2O[C@@H](C)CCCCO[C@H]1CN(C)CC1CC1

>  <assigned label>
inactive

$$$$
>  <sample smiles>
COc1ccc2c3c([nH]c2c1)[C@H](CO)N(C[C@]13CCN(CC1)C(=O)Nc1ccc(cc1)F)C(=O)c1ccc(cc1)F

>  <assigned label>
inactive

$$$$
>  <sample smiles>
COc1ccc2c3c([nH]c2c1)[C@H](CO)N(CC1CCCC1)C[C@]13CCN(CC1)C(=O)Nc1cccc(c1)F

>  <assigned label>
inactive

$$$$
>  <sample smiles>
C[C@H](CO)N1C[C@H](C)[C@@H](CN(C)CC2CC2)OCCCC[C@H](C)Oc2ccc(NC(=O)Nc3cccc4ccccc34)cc2C1=O

>  <assigned label>
inactive

$$$$
>  <sample smiles>
COc1ccc2c3c([nH]c2c1)[C@@H](CO)N(CC1CCCC1)C[C@]13CCN(CC1)C(=O)c1ccc(cc1)F

>  <assigned label>
active

$$$$
>  <sample smiles>
COc1ccc(NC(=O)N(C)C[C@@H]2OCCCC[C@H](C)Oc3ccc(NC(=O)Nc4ccc(C(F)(F)F)cc4)cc3C(=O)N([C@H](C)CO)C[C@@H]2C)cc1

>  <assigned label>
inactive

$$$$

---

tested on: HSkMC; experiment: cytotoxicity call (relative viability < 0.9); details: 10 µM
Among all 39,000 compounds or so, about 1,500 (3.8%) were called active. The full list was thinned out, with actives kept by preference.
Possible outcomes: 1 (active), -1 (inactive)

>  <sample smiles>
C[C@H]1CN([C@@H](C)CO)C(=O)c2cccc(NC(=O)CCCCCC(=O)Nc3ccccc3N)c2O[C@H]1CN(C)Cc1ccc(Cl)c(Cl)c1

>  <assigned label>
1

$$$$
>  <sample smiles>
C[C@H]1CN([C@@H](C)CO)C(=O)c2cccc(NC(=O)CCCCCC(=O)Nc3ccccc3N)c2O[C@H]1CN(C)Cc1ccc(-c2ccccc2)cc1

>  <assigned label>
-1

$$$$
>  <sample smiles>
CN(C)Cc1cn(CC[C@H]2CC[C@H](N)[C@@H](CO)O2)nn1

>  <assigned label>
-1

$$$$
>  <sample smiles>
C[C@@H]1CCCCO[C@@H](CN(C)C(=O)CCC(F)(F)F)[C@H](C)CN([C@@H](C)CO)C(=O)c2cc(NS(=O)(=O)c3cccs3)ccc2O1

>  <assigned label>
-1

$$$$

---

test system: HSkMC; assay: cytotoxicity call (relative viability < 0.9); conditions: 10 µM
The campaign covered roughly 39,000 compounds. About 1,500 (3.8%) were called active. The sample holds actives, similar compounds and a random draw of the others, so the mix is not that of the screen.
Possible outcomes: true (active), false (inactive)

>  <sample smiles>
CC(C)NC(=O)Nc1ccc2c(c1)CC(=O)N([C@H](C)CO)C[C@@H](C)[C@H](CN(C)C(=O)Nc1ccc3c(c1)OCO3)O2

>  <assigned label>
false

$$$$
>  <sample smiles>
C[C@@H]1CCCCO[C@H](CN(C)C(=O)c2ccncc2)[C@H](C)CN([C@H](C)CO)C(=O)c2cc(NS(=O)(=O)c3ccc(Cl)cc3)ccc2O1

>  <assigned label>
false

$$$$
>  <sample smiles>
C[C@@H]1CN([C@@H](C)CO)C(=O)Cc2cc(NC(=O)Nc3ccc(C(F)(F)F)cc3)ccc2O[C@@H]1CN(C)Cc1ccc(-c2ccccc2)cc1

>  <assigned label>
true

$$$$
>  <sample smiles>
CCN1CCC[C@@H]1CN1CNC(=S)NC1

>  <assigned label>
false

$$$$
>  <sample smiles>
C[C@H]1CN([C@@H](C)CO)C(=O)Cc2cc(NC(=O)Nc3ccccc3)ccc2O[C@H]1CN(C)Cc1ccc(-c2ccccc2)cc1

>  <assigned label>
false

$$$$
>  <sample smiles>
COC(=O)c1c(CC[C@@H](CO)NC(=O)N[C@H](Cn2cc(Cc3ccccc3)nn2)C(C)C)oc(C(C)=O)c1C(=O)OC

>  <assigned label>
false

$$$$
>  <sample smiles>
C[C@H](CO)N1C[C@H](C)[C@@H](CN(C)Cc2ccc(-c3ccccc3)cc2)Oc2ccc(NC(=O)Nc3ccccc3)cc2CC1=O

>  <assigned label>
false

$$$$

---

tested on: HSkMC (human skeletal muscle cells); experiment: cytotoxicity call (relative viability < 0.9); settings: 10 µM
Screen size: about 39,000 compounds; about 1,500 (3.8%) were called active. Many of the other results were omitted from the sample, so actives are more common in it than they were.
Possible outcomes: active, inactive

>  <compound>
C[C@@H]1CN([C@H](C)CO)C(=O)c2cc(NC(=O)C3CCCCC3)ccc2O[C@H]1CN(C)Cc1ccc(Cl)c(Cl)c1

>  <tgt>
HSkMC

>  <assigned label>
inactive

$$$$
>  <compound>
CCC(C)n1ncn(-c2ccc(N3CCN(c4ccc(OCC5COC(Cn6cncn6)(c6ccc(Cl)cc6Cl)O5)cc4)CC3)cc2)c1=O.Cl.Cl (stereo unspecified)

>  <tgt>
HSkMC

>  <assigned label>
inactive

$$$$
>  <compound>
Cc1noc(C)c1S(=O)(=O)Nc1ccc2c(c1)CC(=O)N([C@@H](C)CO)C[C@@H](C)[C@@H](CN(C)Cc1ccc(-c3ccccc3)cc1)O2

>  <tgt>
HSkMC

>  <assigned label>
inactive

$$$$
>  <compound>
Nc1ccccc1C(=O)C[C@H](N)C(=O)O

>  <tgt>
HSkMC

>  <assigned label>
inactive

$$$$
>  <compound>
CC[C@H](C)n1ncn(-c2ccc(N3CCN(c4ccc(OC[C@H]5CO[C@](Cn6cncn6)(c6ccc(Cl)cc6Cl)O5)cc4)CC3)cc2)c1=O

>  <tgt>
HSkMC

>  <assigned label>
active

$$$$
>  <compound>
COc1ccc(S(=O)(=O)Nc2ccc3c(c2)C(=O)N([C@@H](C)CO)C[C@@H](C)[C@@H](CN(C)C(=O)Nc2ccccc2)OCCCC[C@@H](C)O3)cc1

>  <tgt>
HSkMC

>  <assigned label>
inactive

$$$$
